Measured target: BRM (Homo sapiens, UniProt P51531)
Sequence (P51531 whole entry): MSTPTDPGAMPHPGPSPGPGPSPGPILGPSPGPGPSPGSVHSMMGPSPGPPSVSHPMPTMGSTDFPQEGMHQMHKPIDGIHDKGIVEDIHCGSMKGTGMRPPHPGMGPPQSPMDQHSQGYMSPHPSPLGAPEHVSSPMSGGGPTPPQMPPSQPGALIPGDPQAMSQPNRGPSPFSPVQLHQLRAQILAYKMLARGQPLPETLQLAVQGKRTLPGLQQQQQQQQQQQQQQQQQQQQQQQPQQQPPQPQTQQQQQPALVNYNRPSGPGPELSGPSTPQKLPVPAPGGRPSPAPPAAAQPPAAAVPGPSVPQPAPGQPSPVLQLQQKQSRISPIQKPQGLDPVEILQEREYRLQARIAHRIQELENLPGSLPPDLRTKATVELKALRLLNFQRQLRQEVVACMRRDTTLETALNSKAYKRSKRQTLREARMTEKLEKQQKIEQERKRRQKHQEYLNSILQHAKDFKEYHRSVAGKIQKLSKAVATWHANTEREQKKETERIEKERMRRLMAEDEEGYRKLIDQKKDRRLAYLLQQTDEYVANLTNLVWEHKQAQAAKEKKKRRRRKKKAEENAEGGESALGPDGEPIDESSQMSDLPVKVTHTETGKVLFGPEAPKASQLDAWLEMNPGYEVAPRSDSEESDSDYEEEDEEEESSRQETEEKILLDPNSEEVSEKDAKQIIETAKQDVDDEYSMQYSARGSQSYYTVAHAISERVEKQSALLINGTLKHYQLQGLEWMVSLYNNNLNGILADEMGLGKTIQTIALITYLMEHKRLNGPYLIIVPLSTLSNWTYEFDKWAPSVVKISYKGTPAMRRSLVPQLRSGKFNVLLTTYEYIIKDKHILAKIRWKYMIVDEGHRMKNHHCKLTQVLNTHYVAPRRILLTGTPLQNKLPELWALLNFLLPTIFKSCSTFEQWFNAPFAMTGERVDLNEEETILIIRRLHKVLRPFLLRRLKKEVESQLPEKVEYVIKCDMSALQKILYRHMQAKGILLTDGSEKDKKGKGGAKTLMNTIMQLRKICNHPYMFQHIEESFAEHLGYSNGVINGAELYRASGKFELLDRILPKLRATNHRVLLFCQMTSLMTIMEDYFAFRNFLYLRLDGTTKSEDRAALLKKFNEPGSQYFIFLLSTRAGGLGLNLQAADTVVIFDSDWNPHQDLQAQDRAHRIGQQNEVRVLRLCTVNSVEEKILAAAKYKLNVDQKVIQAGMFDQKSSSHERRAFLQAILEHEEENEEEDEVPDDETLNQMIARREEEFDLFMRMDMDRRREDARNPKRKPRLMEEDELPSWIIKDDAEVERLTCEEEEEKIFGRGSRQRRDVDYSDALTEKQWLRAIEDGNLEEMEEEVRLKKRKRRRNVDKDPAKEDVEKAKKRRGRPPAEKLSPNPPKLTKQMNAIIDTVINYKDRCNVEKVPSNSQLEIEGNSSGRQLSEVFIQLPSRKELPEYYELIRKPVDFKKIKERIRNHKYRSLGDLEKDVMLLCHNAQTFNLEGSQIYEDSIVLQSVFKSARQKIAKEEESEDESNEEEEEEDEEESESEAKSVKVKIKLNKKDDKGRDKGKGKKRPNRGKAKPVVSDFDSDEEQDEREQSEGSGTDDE
Assay: ATPase catalytic activity assay (ADP-Glo), BRM
Protocol conditions: BRM ATPase: IC50 (uM), 30 nM BRM, 400 μM ATP
# reported IC50; entries follow

INSERT INTO assay_data (molecule, observed_value) VALUES
  ('C[C@@]1(C#N)COCc2ccc(C(=O)NCc3cc4c(cn3)CCN(c3cncc(N5CCOCC5)n3)C4)cc21 [Compound 314]', '< 0.1 µM'),
  ('C[C@@]1(C#N)COCc2ccc(C(=O)NCc3cc(N4CCc5cc(C(F)F)ccc5C4)ccn3)cc21 [Compound 67]', '0.1 to 0.5 µM');

Query string: Quickly give me recorded IC50 for C[C@@]1(C#N)COCc2ccc(C(=O)NCc3cc4nc(-c5cnn(C(F)F)c5)ccc4cn3)cc21 [Compound 504]
Result string: 0.1 to 0.5 µM

Query string: Quickly give me recorded IC50 for C[C@@]1(C#N)COCc2ccc(C(=O)NCc3cc4cc(-c5ccccc5)cnc4cn3)cc21 [Compound 511]
Result string: < 0.1 µM

* * *

Measured target: BRG-1 (Homo sapiens, UniProt P51532)
Sequence (P51532 whole entry): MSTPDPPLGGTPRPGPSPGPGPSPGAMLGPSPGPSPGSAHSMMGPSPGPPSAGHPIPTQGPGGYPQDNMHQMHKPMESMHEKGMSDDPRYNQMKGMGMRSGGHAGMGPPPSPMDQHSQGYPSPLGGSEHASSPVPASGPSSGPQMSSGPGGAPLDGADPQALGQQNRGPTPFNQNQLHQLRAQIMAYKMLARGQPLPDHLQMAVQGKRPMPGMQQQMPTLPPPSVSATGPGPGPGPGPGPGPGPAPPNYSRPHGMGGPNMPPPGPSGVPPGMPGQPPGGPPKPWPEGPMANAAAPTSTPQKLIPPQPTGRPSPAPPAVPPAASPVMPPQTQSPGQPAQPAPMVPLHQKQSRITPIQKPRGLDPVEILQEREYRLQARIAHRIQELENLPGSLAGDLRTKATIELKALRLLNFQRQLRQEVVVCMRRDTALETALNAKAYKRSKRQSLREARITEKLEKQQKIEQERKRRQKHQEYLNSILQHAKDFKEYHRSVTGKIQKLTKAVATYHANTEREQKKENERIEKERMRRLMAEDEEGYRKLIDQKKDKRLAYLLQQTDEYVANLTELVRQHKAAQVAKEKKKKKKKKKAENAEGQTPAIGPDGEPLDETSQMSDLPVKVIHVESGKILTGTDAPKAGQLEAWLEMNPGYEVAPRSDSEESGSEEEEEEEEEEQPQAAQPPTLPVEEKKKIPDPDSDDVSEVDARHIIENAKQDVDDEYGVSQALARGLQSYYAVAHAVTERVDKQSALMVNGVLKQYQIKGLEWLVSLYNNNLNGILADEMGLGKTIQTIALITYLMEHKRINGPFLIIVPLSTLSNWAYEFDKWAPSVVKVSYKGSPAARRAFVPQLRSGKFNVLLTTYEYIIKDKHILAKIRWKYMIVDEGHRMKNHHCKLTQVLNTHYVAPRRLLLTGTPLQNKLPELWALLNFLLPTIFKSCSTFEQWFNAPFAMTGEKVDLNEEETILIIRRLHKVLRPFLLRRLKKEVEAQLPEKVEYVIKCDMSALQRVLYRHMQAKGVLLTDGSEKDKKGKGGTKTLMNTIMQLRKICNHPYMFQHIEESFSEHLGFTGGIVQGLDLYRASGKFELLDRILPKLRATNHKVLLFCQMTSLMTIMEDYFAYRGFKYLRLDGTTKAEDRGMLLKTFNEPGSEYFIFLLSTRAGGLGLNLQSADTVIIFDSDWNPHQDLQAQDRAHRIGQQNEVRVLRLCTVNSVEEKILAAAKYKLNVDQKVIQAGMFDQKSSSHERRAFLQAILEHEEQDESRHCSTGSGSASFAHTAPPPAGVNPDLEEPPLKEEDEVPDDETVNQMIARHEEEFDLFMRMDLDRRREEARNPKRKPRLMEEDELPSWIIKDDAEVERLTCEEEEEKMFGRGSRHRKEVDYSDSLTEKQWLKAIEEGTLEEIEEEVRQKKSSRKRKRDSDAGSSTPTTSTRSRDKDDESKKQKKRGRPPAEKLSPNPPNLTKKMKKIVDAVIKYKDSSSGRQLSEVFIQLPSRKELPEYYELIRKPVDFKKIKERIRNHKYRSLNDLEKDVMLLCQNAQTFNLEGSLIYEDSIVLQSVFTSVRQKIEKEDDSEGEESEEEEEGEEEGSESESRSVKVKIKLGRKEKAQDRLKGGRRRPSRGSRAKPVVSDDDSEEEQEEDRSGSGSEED
Assay: ATPase catalytic activity assay (ADP-Glo), BRG-1
Protocol conditions: 1 h, read-out: BRG1 Max % Inhibition, ADP-Glo, 30 nM BRG-1, 400 μM ATP
Quantity: Emax (%)

INSERT INTO assay_data (compound, observed_value) VALUES
  ('Cn1ncc2c1CN(c1ccc3cnc(CNC(=O)c4ccc5c(c4)[C@](C)(C#N)COC5)cc3n1)C2', 65),
  ('C[C@@]1(C#N)COCc2ccc(C(=O)NCc3nccc(/C=C/c4ccccc4)c3F)cc21', 78),
  ('Cn1cc(F)c2c(-c3ccc4cnc(CNC(=O)c5ccc6c(c5)[C@](C)(C#N)COC6)cc4n3)cccc21', 94),
  ('C[C@@]1(C#N)COCc2ccc(C(=O)NCc3cc(N4CC(c5ccccc5)C4)cnn3)cc21', 29);

[P] Cc1nn(-c2ccc3cnc(CNC(=O)c4ccc5c(c4)[C@](C)(C#N)COC5)cc3n2)cc1F
[Q] COc1nn(C)cc1-c1ccc2cnc(CNC(=O)c3ccc4c(c3)[C@](C)(F)COC4)cc2c1
Query string: Which value of Emax is greater, the one for P or the one for Q ? Field: selected label. Fill in the label of the entry you choose.
Result string: Q

[1] CN(C)c1cccn(-c2ccc3cnc(CNC(=O)c4ccc5c(c4)[C@](C)(C#N)COC5)cc3n2)c1=O
[2] C[C@@]1(C#N)COCc2ncc(C(=O)NCc3cc4nc(-c5cccc(C6CC6)c5)ccc4nn3)cc21
[3] O=C(NCc1cc2nc(-c3cncc(C4CC4)n3)ccc2cn1)c1cnc2c(c1)C(O)(C(F)F)COC2 (stereo not drawn)
Query string: Please order the records by their reported Emax, lowest number first. Answer by listing the labels in the order asked for.
Result string: 3, 1, 2
(3: 23%, 1: 48%, 2: 76%)

[a] C[C@@]1(C#N)COCc2ccc(C(=O)NCc3cc(OCc4cccc(N5CCC5)n4)ccn3)cc21
[b] C[C@@]1(C#N)COCc2ccc(C(=O)NCc3cc4nc(-c5ccnc(C6CCC6)n5)ccc4cn3)cc21
Query string: Which value of Emax is greater, the one for a or the one for b ? Field: selected label. Fill in the label of the entry you choose.
Result string: b
(b: 89%, a: 53%)

[1] CC1(c2nccc(-c3ccc4cnc(CNC(=O)c5ccc6c(c5)[C@](C)(C#N)COC6)cc4n3)n2)COC1
[2] C[C@H]1COCCN1c1nccc(-c2ccc3cnc(CNC(=O)c4ccc5c(c4)[C@](C)(C#N)COC5)cc3n2)n1
Query string: Which value of Emax is greater, the one for 1 or the one for 2 ? Field: selected label. Fill in the label of the entry you choose.
Result string: 2
(2: 79%, 1: 39%)

[a] CN1CC(c2cccc(-c3ccc4cnc(CNC(=O)c5ccc6c(c5)[C@](C)(C#N)COC6)cc4n3)n2)C1
[b] Cc1cn(C)c2cccc(-c3ccc4cnc(CNC(=O)c5ccc6c(c5)[C@](C)(C#N)COC6)cc4n3)c12
Query string: Which value of Emax is greater, the one for a or the one for b ? Field: selected label. Fill in the label of the entry you choose.
Result string: b

* * *

Measured target: BRG-1 (Homo sapiens, UniProt P51532)
Assay: ATPase catalytic activity assay (ADP-Glo), BRG-1
Quantity: IC50

INSERT INTO measurements (molecule, observed_value) VALUES
  ('C[C@@]1(C#N)COCc2ccc(C(=O)NCc3cc(OCc4cccc(N5CCC5)n4)ccn3)cc21 [Compound 34]', '> 1000 nM'),
  ('CC1(c2nccc(-c3ccc4cnc(CNC(=O)c5ccc6c(c5)[C@](C)(C#N)COC6)cc4n3)n2)COC1 [Compound 137]', '> 1000 nM'),
  ('COC[C@H](NC(=O)c1ccc2c(c1)[C@](C)(C#N)COC2)c1cc(C#Cc2ccccc2)ccn1 [Compound 43]', '> 1000 nM');

In the following, a different molecule is considered.
Query string: Quickly give me recorded IC50 for COc1nn(C)cc1-c1ccc2cnc(CNC(=O)c3ccc4c(c3)[C@](C)(C#N)COC4)cc2n1 [Compound 454]
Result string: 100 to 500 nM

* * *

Measured target: BRG-1 (Homo sapiens)
Assay: ATPase catalytic activity assay (ADP-Glo), BRG-1
Protocol conditions: 1 h, read-out: BRG1 Max % Inhibition, ADP-Glo, 30 nM BRG-1, 400 μM ATP
Quantity: Emax (%)

Example entries begin here.
INSERT INTO results (smiles_repr, quantity, readout_unit, observed_value) VALUES
  ('C[C@@]1(C#N)COCc2ccc(C(=O)NCc3cc4nc(-c5cccc(C(F)F)c5)ccc4cn3)cc21', 'Emax', '%', 81),
  ('COc1cc(C2COC2)ccc1-c1ccc2cnc(CNC(=O)c3ccc4c(c3)[C@](C)(C#N)COC4)cc2n1', 'Emax', '%', 86),
  ('C[C@@]1(F)COCc2ccc(C(=O)NCc3cc4nc(-c5ccnc(N6CCC6)n5)sc4cn3)cc21', 'Emax', '%', 75),
  ('C[C@@]1(C#N)COCc2ccc(C(=O)NCc3cc4c(nn3)CCN(c3cncc(N5CCC5)n3)C4)cc21', 'Emax', '%', 65),
  ('CCc1cc2c(-c3ccc4cnc(CNC(=O)c5ccc6c(c5)[C@](C)(C#N)COC6)cc4n3)cccc2n1C', 'Emax', '%', 97),
  ('C[C@@]1(C#N)COCc2ccc(C(=O)NCc3cc4cc(-c5cncc(C6CC6)n5)cnc4cn3)cc21', 'Emax', '%', 80),
  ('C[C@@]1(F)COCc2ncc(C(=O)NCc3cc4nc(-c5cncc(C6CC6)n5)ccc4cn3)cc21', 'Emax', '%', 86),
  ('CC(C)(O)C#Cc1cccc(-c2ccc3cnc(CNC(=O)c4ccc5c(c4)[C@](C)(C#N)COC5)cc3n2)n1', 'Emax', '%', 80),
  ('C[C@@]1(F)COCc2ncc(C(=O)NCc3cc4nc(-c5ccnc(N6CCC6)c5F)cnc4cn3)cc21', 'Emax', '%', 90),
  ('C[C@@]1(C#N)COCc2ccc(C(=O)NCc3cc(N4CCC[C@H](c5ccccc5)C4)ccn3)cc21', 'Emax', '%', 33);

[A] C[C@@]1(C#N)COCc2ccc(C(=O)NCc3cc4c(cn3)CCN(c3ccnc(N5CCOCC5)n3)C4)cc21
[B] C[C@@]1(C#N)COCc2ccc(C(=O)NCc3cc4nc(-c5ccncc5)sc4cn3)cc21
[C] COCC1CN(c2cncc(-c3ccc4cnc(CNC(=O)c5ccc6c(c5)[C@](C)(C#N)COC6)cc4n3)n2)C1
Query string: Please order the records by their reported Emax, lowest number first. Answer by listing the labels in the order asked for.
Result string: B, A, C
(B: 28%, A: 64%, C: 93%)

[P] COC1(c2cccc(-c3ccc4cnc(CNC(=O)c5ccc6c(c5)[C@](C)(C#N)COC6)cc4n3)c2)COC1
[Q] C[C@@]1(C#N)COCc2ccc(C(=O)NCc3cc4nc(-c5cccc(C(=O)N6CCC6)c5)ccc4cn3)cc21
Query string: Which value of Emax is greater, the one for P or the one for Q ? Field: selected label. Fill in the label of the entry you choose.
Result string: Q

* * *

Measured target: BRM (Homo sapiens)
Assay: ATPase catalytic activity assay (ADP-Glo), BRM
Protocol conditions: BRM ATPase: IC50 (uM), 30 nM BRM, 400 μM ATP
# reported IC50; entries follow

Example entries begin here.
INSERT INTO assay_data (compound, observed_value) VALUES
  ('C[C@@]1(C#N)COCc2ccc(C(=O)NCc3cc(N4CCc5ccc(C(F)F)cc5C4)ccn3)cc21', '< 0.1 µM'),
  ('C[C@@]1(C#N)COCc2ccc(C(=O)NCc3cc(C4CCN(c5ccccc5)C4)ccn3)cc21 (stereo partly drawn)', '0.1 to 0.5 µM'),
  ('CN1CC(c2cccc(-c3ccc4cnc(CNC(=O)c5ccc6c(c5)[C@](C)(C#N)COC6)cc4n3)n2)C1', '0.1 to 0.5 µM'),
  ('COc1ccncc1-c1ccc2cnc(CNC(=O)c3ccc4c(c3)[C@](C)(C#N)COC4)cc2n1', '0.1 to 0.5 µM');

Query string: Quickly give me recorded IC50 for `CN1CCN(c2cccc(-c3ccc4cnc(CNC(=O)c5ccc6c(c5)[C@](C)(C#N)COC6)cc4n3)n2)CC1`
Result string: < 0.1 µM

Query string: Quickly give me recorded IC50 for `C[C@@]1(C#N)COCc2ccc(C(=O)NCc3cc4nc(-c5ccnc(N6CCOCC6)n5)ccc4cn3)cc21`
Result string: < 0.1 µM

Query string: Quickly give me recorded IC50 for `C[C@@]1(F)COCc2ccc(C(=O)NCc3cc4cc(-c5ccnn(C6CC6)c5=O)ccc4cn3)cc21`
Result string: 0.1 to 0.5 µM

Query string: Quickly give me recorded IC50 for `CN1CCN(c2cccc(-c3ccc4cnc(CNC(=O)c5ccc6c(c5)[C@](C)(C#N)COC6)cc4n3)c2)CC1`
Result string: 0.1 to 0.5 µM

Query string: Quickly give me recorded IC50 for `C[C@@]1(C#N)COCc2ccc(C(=O)NCc3nccc(C#Cc4ccccc4)c3F)cc21`
Result string: 0.1 to 0.5 µM

Query string: Quickly give me recorded IC50 for `C[C@@]1(F)COCc2ccc(C(=O)NCc3cc4nc(-c5ccnc(C6CC6)n5)sc4cn3)cc21`
Result string: 0.1 to 0.5 µM

Query string: Quickly give me recorded IC50 for `COc1nn(C)cc1-c1ccc2cnc(CNC(=O)c3ccc4c(c3)[C@](C)(F)COC4)cc2c1`
Result string: < 0.1 µM

Query string: Quickly give me recorded IC50 for `Cc1nn(C)cc1-c1ccc2cnc(CNC(=O)c3ccc4c(c3)[C@](C)(C#N)COC4)cc2n1`
Result string: 0.1 to 0.5 µM

Query string: Quickly give me recorded IC50 for `C[C@@]1(C#N)COCc2ccc(C(=O)NCc3cc4c(cn3)CCN(c3ccccc3)C4)cc21`
Result string: 0.1 to 0.5 µM

Query string: Quickly give me recorded IC50 for `C[C@@]1(C#N)COCc2ccc(C(=O)NCc3cc4nn(-c5cccc(N6CCC6)n5)cc4cn3)cc21`
Result string: 0.1 to 0.5 µM

Query string: Quickly give me recorded IC50 for `O=C(NCc1cc2nc(-c3cncc(C4CC4)n3)ccc2cn1)c1cc(F)c2c(c1)[C@](F)(C(F)F)COC2`
Result string: < 0.1 µM
